Assayed System: human A3 receptors (Homo sapiens)
Construct: expressed in transfected cells; host or cells: CHO cells
Sequence (P0DMS8 whole entry): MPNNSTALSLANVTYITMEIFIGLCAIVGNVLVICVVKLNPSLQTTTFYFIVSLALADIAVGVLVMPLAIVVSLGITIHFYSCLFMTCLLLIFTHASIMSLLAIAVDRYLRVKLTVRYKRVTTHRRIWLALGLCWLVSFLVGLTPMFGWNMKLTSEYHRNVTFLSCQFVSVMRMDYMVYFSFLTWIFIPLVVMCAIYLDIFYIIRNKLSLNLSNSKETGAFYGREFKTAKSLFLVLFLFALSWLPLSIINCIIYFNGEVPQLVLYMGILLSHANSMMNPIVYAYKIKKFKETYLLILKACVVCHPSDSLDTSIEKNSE
Experiment Summary: [^3H] MRE3008F20 binding to human A3 receptors expressed in CHO cells (antagonist radioligand)
Property Label: Ki (nM)
One number for each entry, in nM.

Prompt line: # get_value(readout='Ki', item= CCNC(=O)[C@H]1O[C@@H](n2cnc3c(NC(=O)Nc4ccc(S(=O)(=O)N(CCCl)CCCl)cc4)ncnc32)[C@H](O)[C@@H]1O [Compound 91] )
Response line: 120

---

Property Label: melting point

Examples from the recorded data:
CCNC(=O)[C@H]1O[C@@H](n2cnc3c(NC(=O)Nc4cccc(S(=O)(=O)N(C)C(C)C)c4)ncnc32)C(O)C1O (stereo partly drawn) [Compound 112]    147 to 148 °C
CCNC(=O)[C@H]1O[C@@H](n2cnc3c(NC(=O)Nc4ccc(S(=O)(=O)N5CCOCC5)cc4)ncnc32)C(O)C1O (stereo partly drawn) [Compound 84]    204 to 205 °C
C=CCN(CC=C)S(=O)(=O)c1ccc(NC(=O)Nc2ncnc3c2ncn3[C@@H]2O[C@H](C(=O)NCC)[C@@H](O)[C@H]2O)cc1 [Compound 99]    126 °C

Parameters: items (list). Returns: melting point for each item.
1. CCNC(=O)[C@H]1O[C@@H](n2cnc3c(NC(=O)Nc4ccc(S(=O)(=O)N5CCCC5)cc4)ncnc32)[C@H](O)[C@@H]1O [Compound 90]
2. CCNC(=O)[C@H]1O[C@@H](n2cnc3c(NC(=O)Nc4ccc(S(=O)(=O)NC56CC7CC(CC(C7)C5)C6)cc4)ncnc32)[C@H](O)[C@@H]1O [Compound 93]
3. CCNC(=O)[C@H]1O[C@@H](n2cnc3c(NC(=O)Nc4ccc(S(=O)(=O)NC5CC5)cc4)ncnc32)[C@H](O)[C@@H]1O [Compound 89]
4. CCNC(=O)[C@H]1O[C@@H](n2cnc3c(NC(=O)Nc4ccc(S(=O)(=O)N(CC)CC)cc4)ncnc32)[C@H](O)[C@@H]1O [Compound 100]
5. C=CCN(C)S(=O)(=O)c1ccc(NC(=O)Nc2ncnc3c2ncn3[C@@H]2O[C@H](C(=O)NCC)[C@@H](O)[C@H]2O)cc1 [Compound 96]
6. CCNC(=O)[C@H]1O[C@@H](n2cnc3c(NC(=O)Nc4cccc(S(=O)(=O)Nc5ccc(OC)cc5)c4)ncnc32)C(O)C1O (stereo partly drawn) [Compound 105]
7. CCNC(=O)[C@H]1O[C@@H](n2cnc3c(NC(=O)Nc4ccccc4S(N)(=O)=O)ncnc32)C(O)C1O (stereo partly drawn) [Compound 106]

Response line:
["204 to 205 °C", "192 °C", "180 °C (dec.)", "168 °C", "181 to 185 °C", "206 to 208 °C (dec.)", "188 to 189 °C"]

Parameters: items (list). Returns: melting point for each item.
1. CCNC(=O)[C@H]1O[C@@H](n2cnc3c(NC(=O)Nc4ccc(S(=O)(=O)NC(C)(C)C)cc4)ncnc32)[C@H](O)[C@@H]1O [Compound 92]
2. CCNC(=O)[C@H]1O[C@@H](n2cnc3c(NC(=O)Nc4ccc(S(=O)(=O)NCC)cc4)ncnc32)[C@H](O)[C@@H]1O [Compound 85]

Response line:
1. 185 °C
2. 180 to 183 °C

---

Assayed System: human A2A receptors (Homo sapiens, UniProt P29274)
Construct: expressed in transfected cells; host or cells: CHO cells
Sequence (P29274 whole entry): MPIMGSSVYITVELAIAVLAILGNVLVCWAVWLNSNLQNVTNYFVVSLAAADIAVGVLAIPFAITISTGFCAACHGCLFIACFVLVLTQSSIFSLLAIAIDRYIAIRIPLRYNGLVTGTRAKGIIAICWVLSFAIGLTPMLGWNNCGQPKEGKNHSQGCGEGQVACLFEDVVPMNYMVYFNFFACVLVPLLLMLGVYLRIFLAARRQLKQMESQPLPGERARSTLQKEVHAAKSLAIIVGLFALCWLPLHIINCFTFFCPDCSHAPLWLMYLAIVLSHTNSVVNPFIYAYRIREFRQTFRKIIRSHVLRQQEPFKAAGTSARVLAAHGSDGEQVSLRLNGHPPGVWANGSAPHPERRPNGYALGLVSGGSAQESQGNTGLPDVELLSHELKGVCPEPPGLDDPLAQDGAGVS
Experiment Summary: [^3H] SCH58261 binding to human A2A receptors expressed in CHO cells (antagonist radioligand)
Applied Conditions: human A2A, CHO cells, antagonist radioligand; read-out: [^3H] SCH58261 binding to human A2A receptors expressed in CHO cells Ki
pKi: −log10 of the molar value.
Provide the recorded pKi for the entries that follow.

Examples from the recorded data:
CCNC(=O)[C@H]1O[C@@H](n2cnc3c(NC(=O)Nc4ccc(S(=O)(=O)N5CCCC5)cc4)ncnc32)[C@H](O)[C@@H]1O [Compound 90]    < 6.00
CCNC(=O)[C@H]1O[C@@H](n2cnc3c(NC(=O)Nc4ccc(S(=O)(=O)NC(C)(C)C)cc4)ncnc32)[C@H](O)[C@@H]1O [Compound 92]    < 6.00

Then this compound:
Prompt line: # get_value(readout='pKi', item= CCNC(=O)[C@H]1O[C@@H](n2cnc3c(NC(=O)Nc4ccc(S(=O)(=O)NCC)cc4)ncnc32)[C@H](O)[C@@H]1O [Compound 85] )
Response line: < 6.00

---

Assayed System: human A2A adenosine receptors (Homo sapiens, UniProt P29274)
Construct: expressed in transfected cells; host or cells: CHO cells
Sequence (P29274 whole entry): as above
Experiment Summary: Displacement of [^3H]CGS21680 binding, human A2A adenosine receptors in CHO cells (agonist radioligand)
Applied Conditions: read-out: Ki(A2A). Displacement of [^3H]CGS21680 binding to human A2A adenosine receptors exp. in CHO cells.
Property Label: Ki

Prompt line: # get_value(readout='Ki', item= CCNC(=O)[C@H]1O[C@@H](n2cnc3c(NC(=O)Nc4ccc(S(=O)(=O)NC5C=CCC5)cc4)ncnc32)[C@H](O)[C@@H]1O (stereo partly shown) [Compound 101] )
Response line: > 1000 nM

---

Provide the recorded pKi for the entries that follow.
Assayed System: human A1 adenosine receptors (Homo sapiens, UniProt P30542)
Sequence (P30542 whole entry): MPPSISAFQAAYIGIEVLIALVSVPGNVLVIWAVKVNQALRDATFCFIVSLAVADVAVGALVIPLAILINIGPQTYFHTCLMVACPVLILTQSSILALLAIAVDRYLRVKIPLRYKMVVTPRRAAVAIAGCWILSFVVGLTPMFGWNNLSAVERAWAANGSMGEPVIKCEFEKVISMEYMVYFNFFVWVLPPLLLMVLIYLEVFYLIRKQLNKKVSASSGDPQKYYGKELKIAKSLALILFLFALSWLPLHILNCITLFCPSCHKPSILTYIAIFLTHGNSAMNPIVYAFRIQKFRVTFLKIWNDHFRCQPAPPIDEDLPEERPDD
Experiment Summary: Displacement of [^3H]CHA binding, human A1 adenosine receptors in CHO cells (agonist radioligand)
One number for each entry, as −log10 of the molar value.

Examples from the recorded data:
CCNC(=O)[C@H]1O[C@@H](n2cnc3c(NC(=O)Nc4ccc(S(=O)(=O)NC(C)(C)C)cc4)ncnc32)[C@H](O)[C@@H]1O    6.60
CCNC(=O)[C@H]1O[C@@H](n2cnc3c(NC(=O)Nc4ccc(S(=O)(=O)N(CCCl)CCCl)cc4)ncnc32)[C@H](O)[C@@H]1O    6.14
CCNC(=O)[C@H]1O[C@@H](n2cnc3c(NC(=O)Nc4ccc(S(=O)(=O)NC5CCCCC5)cc4)ncnc32)[C@H](O)[C@@H]1O    6.46

Parameters: items (list). Returns: pKi for each item.
1. CCNC(=O)[C@H]1O[C@@H](n2cnc3c(NC(=O)Nc4ccc(S(=O)(=O)NCC)cc4)ncnc32)[C@H](O)[C@@H]1O
2. CCNC(=O)[C@H]1O[C@@H](n2cnc3c(NC(=O)Nc4ccc(S(=O)(=O)NC56CC7CC(CC(C7)C5)C6)cc4)ncnc32)[C@H](O)[C@@H]1O
3. CCCN(CCC)S(=O)(=O)c1ccc(NC(=O)Nc2ncnc3c2ncn3[C@@H]2O[C@H](C(=O)NCC)[C@@H](O)[C@H]2O)cc1

Response line:
6.60
6.62
6.46

---

Assayed System: human A3 receptors (Homo sapiens)
Construct: expressed in transfected cells; host or cells: CHO cells
Experiment Summary: [^3H] MRE3008F20 binding to human A3 receptors expressed in CHO cells (antagonist radioligand)
Applied Conditions: human A3, CHO cells, antagonist radioligand; read-out: [^3H] MRE3008F20 binding to human A3 receptors expressed in CHO cells Ki
Experimental: Binding assay methodology for the human data with antagonist radioligands. […] Arch. Pharmacol. 357: 1-9, (1998). The cells were grown adherently and maintained in Dulbecco's Modified Eagles Medium with nutrient mixture F12 (DMEM/F12) without nucleosides, containing 10% fetal calf serum, penicillin (100 U/ml), streptomycin (100 μg/ml), L-glutamine (2 mM) and Geneticin (G418, 0.2 mg/ml) at 37° C. in 5% CO2/95% air. Cells were split 2 or 3 times weekly at a ratio between 1:5 and 1:20. […]
Property Label: pKi
Give bare numbers, as −log10 of the molar value.

Examples from the recorded data:
CCNC(=O)[C@H]1O[C@@H](n2cnc3c(NC(=O)Nc4ccc(S(=O)(=O)NC56CC7CC(CC(C7)C5)C6)cc4)ncnc32)[C@H](O)[C@@H]1O    6.51
CCNC(=O)[C@H]1O[C@@H](n2cnc3c(NC(=O)Nc4ccc(S(=O)(=O)NC5CCCC5)cc4)ncnc32)[C@H](O)[C@@H]1O    6.85
CCNC(=O)[C@H]1O[C@@H](n2cnc3c(NC(=O)Nc4ccc(S(=O)(=O)N5CCCC5)cc4)ncnc32)[C@H](O)[C@@H]1O    7.00

Parameters: items (list). Returns: pKi for each item.
1. CCNC(=O)[C@H]1O[C@@H](n2cnc3c(NC(=O)Nc4ccc(S(=O)(=O)NC5CC5)cc4)ncnc32)[C@H](O)[C@@H]1O
2. CCNC(=O)[C@H]1O[C@@H](n2cnc3c(NC(=O)Nc4ccc(S(=O)(=O)NC(C)(C)C)cc4)ncnc32)[C@H](O)[C@@H]1O
3. CCNC(=O)[C@H]1O[C@@H](n2cnc3c(NC(=O)Nc4ccc(S(=O)(=O)N5CCOCC5)cc4)ncnc32)C(O)C1O (stereo partly drawn)
4. CCNC(=O)[C@H]1O[C@@H](n2cnc3c(NC(=O)Nc4ccc(S(=O)(=O)NCC)cc4)ncnc32)[C@H](O)[C@@H]1O

Response line:
1. 6.47
2. 6.48
3. 6.70
4. 6.63

Parameters: items (list). Returns: pKi for each item.
1. C=CCN(C)S(=O)(=O)c1ccc(NC(=O)Nc2ncnc3c2ncn3[C@@H]2O[C@H](C(=O)NCC)[C@@H](O)[C@H]2O)cc1
2. CCCCCNS(=O)(=O)c1ccc(NC(=O)Nc2ncnc3c2ncn3[C@@H]2O[C@H](C(=O)NCC)[C@@H](O)[C@H]2O)cc1

Response line:
7.30
6.05
